self-splicing fitness (ln): recorded values
- experimentalProtocol: self-splicing fitness, log relative to wild type (ln ratio); higher = more splicing; Tetrahymena group I intron in knt gene, E. coli kanamycin selection, DiMSum; sequences stand for … in CUCUCU…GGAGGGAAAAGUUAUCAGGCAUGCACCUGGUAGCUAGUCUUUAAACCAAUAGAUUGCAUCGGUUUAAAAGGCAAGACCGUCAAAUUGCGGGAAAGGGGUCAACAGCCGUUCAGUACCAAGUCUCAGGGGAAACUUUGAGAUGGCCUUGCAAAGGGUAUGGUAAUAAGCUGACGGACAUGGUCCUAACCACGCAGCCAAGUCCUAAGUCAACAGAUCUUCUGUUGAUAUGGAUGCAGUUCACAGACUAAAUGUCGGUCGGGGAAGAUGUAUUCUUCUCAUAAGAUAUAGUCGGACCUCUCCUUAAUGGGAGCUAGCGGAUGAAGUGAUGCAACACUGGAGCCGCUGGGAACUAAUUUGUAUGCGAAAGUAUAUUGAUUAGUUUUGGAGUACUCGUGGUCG;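 also: selection with 25 µg/mL kanamycin versus none on LB agar overnight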
- conditionContext: 37 °C
Enter the number alone.

Worked cases, self-splicing fitness (ln) given:
| sequenceString | recordedNumber |
| --- | --- |
| GUCGAGCAAUAUUACGGACA | -1.95 |
| GCGGAGCAAUAUUACGCCAG | -2.26 |
| UAGUAGCAAUAUUACGGGGG | -2.8 |
| AAGUAGCAAUAUUACGCAAG | 0.657 |
| UGGCAGCAAUAUUACGCCCC | -0.487 |

# input For the sequence GGACAGCAAUAUUACGGACC , give its reported self-splicing fitness (ln).
# output -1.02

# input Please give the documented self-splicing fitness (ln) of CGGAAGCAAUAUUACGUAAC
# output -2.71

# input Retrieve self-splicing fitness (ln) measured for ACCUAGCAAUAUUACGCCAU and print it.
# output -1.21
